Provenance of the data: paper PMC6470533

test system: Staphylococcus aureus (ATCC 29213); format: cell-based; conditions: ATCC 29213, 18 h
Non-standard residues stand in square brackets, D forms with d. Residues, ends and D or L forms follow the SMILES beside them. N(1-naphthylmethyl)Gly = O=C(O)CNCc1cccc2ccccc12; d1Nal = N[C@H](Cc1cccc2ccccc12)C(=O)O; NBuGly = CCCCNCC(=O)O; Nlys = NCCCCNCC(=O)O

Molecule	Result modifier	MIC SA / µg/mL
CCCCN(CC(N)=O)C(=O)CN(CCCCN)C(=O)CN(Cc1cccc2ccccc12)C(=O)CN(CCCCN)C(=O)[C@@H](Cc1ccccc1)NC(=O)[C@@H](Cc1cccc2ccccc12)NC(=O)[C@@H](CCCCN)NC(=O)[C@H](N)CCCCN [compound 14] (H-[dK][dK][d1Nal][dF][Nlys][N(1-naphthylmethyl)Gly][Nlys][NBuGly]-NH2; N-terminus assumed)	=	16
CCCCN(CC(N)=O)C(=O)CN(CCCCN)C(=O)CN(Cc1cccc2ccccc12)C(=O)CN(CCCCN)C(=O)CNC(=O)CN(Cc1cccc2ccccc12)C(=O)CN(CCCCN)C(=O)CNCCCCN [compound 4] (H-[Nlys][Nlys][N(1-naphthylmethyl)Gly]G[Nlys][N(1-naphthylmethyl)Gly][Nlys][NBuGly]-NH2; N-terminus assumed)	>	64
